target: UniProt P16066
Sequence (P16066 whole entry): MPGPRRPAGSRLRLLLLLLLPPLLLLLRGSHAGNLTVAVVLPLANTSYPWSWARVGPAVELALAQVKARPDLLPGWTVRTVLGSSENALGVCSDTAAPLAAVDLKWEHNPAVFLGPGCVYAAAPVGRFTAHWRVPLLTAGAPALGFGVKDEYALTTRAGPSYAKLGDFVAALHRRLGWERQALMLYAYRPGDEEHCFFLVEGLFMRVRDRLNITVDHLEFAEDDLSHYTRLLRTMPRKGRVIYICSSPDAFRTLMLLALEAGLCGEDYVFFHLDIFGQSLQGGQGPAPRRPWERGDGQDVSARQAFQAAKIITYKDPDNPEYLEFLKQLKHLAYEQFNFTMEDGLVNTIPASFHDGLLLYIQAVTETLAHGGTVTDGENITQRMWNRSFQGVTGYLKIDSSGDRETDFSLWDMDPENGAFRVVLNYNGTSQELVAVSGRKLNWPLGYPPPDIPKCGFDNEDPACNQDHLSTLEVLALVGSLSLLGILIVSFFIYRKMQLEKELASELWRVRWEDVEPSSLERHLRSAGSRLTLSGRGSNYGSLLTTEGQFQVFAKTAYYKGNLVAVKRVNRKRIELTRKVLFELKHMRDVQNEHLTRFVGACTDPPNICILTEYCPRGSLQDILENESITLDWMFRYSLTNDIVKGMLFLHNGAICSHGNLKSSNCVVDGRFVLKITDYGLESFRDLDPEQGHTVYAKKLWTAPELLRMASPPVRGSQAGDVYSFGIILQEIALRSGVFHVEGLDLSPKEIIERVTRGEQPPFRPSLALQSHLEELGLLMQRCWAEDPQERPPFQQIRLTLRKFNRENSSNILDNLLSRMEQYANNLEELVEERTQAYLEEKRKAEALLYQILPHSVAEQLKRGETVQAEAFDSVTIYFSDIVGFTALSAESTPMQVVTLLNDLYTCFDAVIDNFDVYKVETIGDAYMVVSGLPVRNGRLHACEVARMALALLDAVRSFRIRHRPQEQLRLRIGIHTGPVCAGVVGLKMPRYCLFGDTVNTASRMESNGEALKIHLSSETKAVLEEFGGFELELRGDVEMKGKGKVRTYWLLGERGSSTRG
Numbered stars: 1 amine (or outer) side, 2 acyl side, 3 side chain; on linkers, the order of the positions; unused ones are H or OH. Square brackets hold non-standard residues; d marks the D form. Peptide text beside a SMILES is read from it. * marks the point of attachment. NH(2S-methylbutyl) = CC[C@H](C)CN*; 2Naphthoyl = O=C(c1ccc2ccccc2c1)*; X1 = O=C(Cc1ccc(N[*:1])cc1)[*:2]
measured-property: pKi
Just so you know, pKi here is -log10 of the concentration in molar units; reply with that number alone.

compound: CC[C@H](C)CNC(=O)[C@H](CCCN=C(N)N)NC(=O)[C@H](CC(=O)O)NC(=O)[C@H](C)NC(=O)[C@H](CCCN=C(N)N)NC(=O)Cc1ccc(NC(=O)c2ccc3ccccc3c2)cc1 (2Naphthoyl-[X1]RADR-{NH(2S-methylbutyl)})
assay-value: 6.17

As a next step, examine the compound that follows.
Incoming: Supply pKi value. Item: CC[C@H](C)CNC(=O)[C@H](C)NC(=O)[C@H](CC(=O)O)NC(=O)[C@@H](NC(=O)[C@H](CCCN=C(N)N)NC(=O)Cc1ccc(NC(=O)c2ccc3ccccc3c2)cc1)[C@@H](C)CC (2Naphthoyl-[X1]RIDA-{NH(2S-methylbutyl)})
Outgoing: 9.40
